Hello, the source for this data is PubChem BioAssay (NCI), in case you need it.

I'd appreciate it if you could supply growth inhibition values for the items below.
assay explanation: NCI Yeast Anticancer Drug Screen. Data for the rad50 strain (AID 155);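 note: 0% = growth of vehicle-only cultures of the same strain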
experimental context: S. cerevisiae rad50 strain growth inhibition; at 50.0 µM; hits give high values
This is part of a sample that, as a whole, favours compounds with a hit. Of some 79,000 tested, about 15% had one in any assay. Calls of active or inactive are those of the source. Cut-off read from the data, not from the text of the source: active = growth inhibition above about 70%; inactive = the rest.

# compound S=c1[nH]nc(SCc2ccc(Cl)cc2Cl)c2[nH]cnc12 ; its growth inhibition = -2.15% (inactive)

# compound CC1=C(C(=O)CC(=O)Nc2ccc(Cl)c(Cl)c2)Sc2ccccc2N1 ; its growth inhibition = 8.1% (inactive)

# compound Cn1c2ccccc2c(=O)c2cc(NC(=O)/C=C/C(=O)Nc3ccc4c(c3)c(=O)c3ccccc3n4C)ccc21 ; its growth inhibition = -3.25% (inactive)

# compound CCCOC(=O)c1ccccc1Cl ; its growth inhibition = 31.1% (inactive)

# compound c1ccc2[nH]c(-c3nc4ccccc4s3)cc2c1 ; its growth inhibition = -3.75% (inactive)

# compound COc1ccc(N(Cc2ccc(C)o2)C(=S)Nc2ccccc2)cc1 ; its growth inhibition = -3.6% (inactive)

# compound CCOc1nc(N)nc(C)c1N=Nc1ccc(C)cc1 ; its growth inhibition = 1.75% (inactive)

# compound COc1ccc(C2=Nn3c(nc4sc(C)c(C)c4c3=O)SC2)cc1 ; its growth inhibition = 2.45% (inactive)

# compound NC(=O)C(=O)C(c1ccccc1)S(=O)(=O)Cc1ccccc1 (stereo unspecified) ; its growth inhibition = -59.5% (inactive)

# compound O=C1CC2C(=O)N(Cc3ccccc3)C(=O)C2C(=O)N1 (stereo unspecified) ; its growth inhibition = -3.1% (inactive)

# compound Cn1c(=O)c2c(ncn2Cc2ccccc2)n(C)c1=O ; its growth inhibition = -1.65% (inactive)

* * *

assay explanation: NCI Yeast Anticancer Drug Screen. Data for the sgs1 mgt1 strain (AID 161);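 note: 0% = growth of cultures given vehicle only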
experimental context: S. cerevisiae sgs1 mgt1 strain, at 50.0 µM, hits give high values
About 79,000 compounds went through this panel and 15% of them were active in at least one assay; those are over-represented in the sample as a whole. Active and inactive are the calls of the source. Rule as the data show it: active = growth inhibition above about 70%; inactive = the rest.
I'd appreciate it if you could supply growth inhibition values for the items below.

# compound COc1ccc(-c2cc(-c3ccccc3)n(C3OCC(OC(C)=O)C(OC(C)=O)C3OC(C)=O)c(=S)c2C#N)cc1 (centres undefined) ; its growth inhibition = -12.7% (inactive)

# compound CCCCCN1C(=O)N=NC1=S ; its growth inhibition = 19.2% (inactive)

# compound CC(NC(=O)C(C)NC(=O)C(N)CCP(C)(=O)O)C(=O)O (centres undefined) ; its growth inhibition = -15.2% (inactive)

# compound CC(C)C(=O)C(F)(F)F ; its growth inhibition = -21.3% (inactive)

# compound NCCCCCCNCc1cccc2ccccc12 ; its growth inhibition = -9.7% (inactive)

# compound O=C1CCCC2C1C1CCCC(=O)C21 (centres undefined) ; its growth inhibition = 3.1% (inactive)

# compound CCOC(=O)Cc1nc2sc(C)c(-c3ccccc3)c2c(=O)[nH]1 ; its growth inhibition = 27.5% (inactive)

# compound CCCCS(=O)CC(CO)NC(=O)/C=C/c1c(C)[nH]c(=O)[nH]c1=O (centres undefined) ; its growth inhibition = 12.8% (inactive)

# compound COC(=O)C(C(=O)OC)C(c1cccc([N+](=O)[O-])c1)C(N)c1ccccc1 (centres undefined) ; its growth inhibition = -0.5% (inactive)

# compound O=C1CCC2(c3ccc(Cl)cc3)SCCN12 (centres undefined) ; its growth inhibition = -6.85% (inactive)

# compound COc1cc(C2c3cc4c(c(OS(=O)(=O)O)c3CC3COC(=O)C32)OCO4)cc(OC)c1OC (centres undefined) ; its growth inhibition = -18.9% (inactive)

# compound O=C(Cc1nc2ccccc2[nH]c1=O)c1cccnc1 ; its growth inhibition = 13.2% (inactive)

# compound O=C(Cc1ccccc1)NCc1ccc(Cl)cc1 ; its growth inhibition = 34.1% (inactive)

# compound CCOC(=O)N1C(=O)c2ccccc2C1=O ; its growth inhibition = -16.8% (inactive)

# compound OCC1(CO)CCC=CO1 ; its growth inhibition = 2.5% (inactive)

# compound CN(C)c1ccc(/C=C(\C#N)c2ccc(Cl)cc2Cl)cc1 ; its growth inhibition = -0.35% (inactive)

# compound CCCCC(C(=O)O)C1CCCCC1 (centres undefined) ; its growth inhibition = 23.4% (inactive)

# compound CCOS(=O)(=O)c1ccc(F)c([N+](=O)[O-])c1 ; its growth inhibition = -1.9% (inactive)

# compound CCCCN1CCSC1=S ; its growth inhibition = 98.2% (active)

# compound CCC(=O)C(C)C(=O)C(=O)NCCNC(=O)C(=O)C(C)C(=O)CC (centres undefined) ; its growth inhibition = 2.75% (inactive)

# compound CCOC(=O)C1(Cc2ccc3c(c2)CCC3)Cc2cc3c(cc2C1=O)CCC3 (centres undefined) ; its growth inhibition = -17.9% (inactive)

# compound COC(=O)/C(C#N)=C/NC(=S)Nc1ccccc1 ; its growth inhibition = -44.5% (inactive)

# compound Cn1c(=O)c2c(ncn2CCSCC2=NS(=O)(=O)c3cc(S(N)(=O)=O)c(C(F)(F)F)cc3N2)n(C)c1=O ; its growth inhibition = -6.5% (inactive)

# compound N#Cc1c(O)c(N=Nc2ccccc2F)c(=O)n2c1[nH]c1ccccc12 ; its growth inhibition = -10.4% (inactive)

# compound O=C1CN(c2ccccc2)Cc2nc(Cl)ccc2N1 ; its growth inhibition = 24.4% (inactive)

# compound COC1C(C(=O)O)=CC=CC1OC(C)=O (centres undefined) ; its growth inhibition = -2.55% (inactive)

# compound CCCC(=O)Nc1cc(/C=C/C(=O)N2C[C@H]3C[C@@]34C2=CC(=O)c2[nH]cc(C)c24)n(C)c1 ; its growth inhibition = 83.7% (active)

# compound CC(=O)OCSc1ncnc2c1ncn2CN1CCOCC1 ; its growth inhibition = -19.9% (inactive)

# compound O=C(N/N=C/c1ccc(Br)cc1)N/N=C/c1ccc(Br)cc1 ; its growth inhibition = -6.45% (inactive)

# compound CCCCCN(CCCCC)C(=O)C(C)C ; its growth inhibition = 4.6% (inactive)

# compound N#CCCN(Cc1ccccc1)C(=S)Nc1cccc(C(F)(F)F)c1 ; its growth inhibition = 85.2% (active)

# compound COc1cc2ccnc([C@@H](OC(=O)c3ccccc3)c3ccc(OC)c(OC)c3OC)c2cc1OC ; its growth inhibition = 40.9% (inactive)

# compound Nc1ccn(C2OC(COP(=O)(O)O)C(O)C2O)c(=O)n1 (centres undefined) (tested in a mixture with another compound) ; its growth inhibition = -0.75% (inactive)

# compound CCCCC(CC)COC(=O)COc1ccc(C(C)c2ccc(OCC(=O)OCC(CC)CCCC)cc2)cc1 (centres undefined) ; its growth inhibition = 7.9% (inactive)

# compound O=[N+]([O-])c1cnc(N(CCO)CCO)s1 ; its growth inhibition = 0.1% (inactive)

# compound O=C(O)c1ccc(B(O)O)cc1[N+](=O)[O-] ; its growth inhibition = 7.35% (inactive)

# compound CC/C(=C\c1ccccc1O)c1ccncc1 ; its growth inhibition = 2.5% (inactive)

# compound COCCCNc1nc(N)c(C#N)c(C#N)c1C#N ; its growth inhibition = 2.85% (inactive)

# compound CN(C)CCNC(=O)Cn1cnc2cccc([N+](=O)[O-])c2c1=O ; its growth inhibition = 4.85% (inactive)

# compound O=NN(Cc1ccccc1)NC(=O)c1ccccc1 ; its growth inhibition = 8.9% (inactive)

# compound [Cl][Ge]([Cl])([c]1ccccc1)[c]1ccccc1 ; its growth inhibition = 29.1% (inactive)

# compound COc1cccc(NC(=O)NCCN(C)c2ccccc2)c1 ; its growth inhibition = 21.1% (inactive)

# compound c1ccc2nc(N3CCCC3)c(N3CCCC3)nc2c1 ; its growth inhibition = -10.7% (inactive)

# compound C1=Nc2ccccc2/C1=C/c1ccc2c(c1)OCO2 ; its growth inhibition = -6.9% (inactive)

# compound CCc1ccc(O)cc1 ; its growth inhibition = 13.3% (inactive)

# compound Cc1nc(N)nc(C)c1N=Nc1cc(Br)ccc1Br ; its growth inhibition = -15.4% (inactive)

# compound COC(=O)c1nc[nH]c1C(=O)OC ; its growth inhibition = 15.8% (inactive)

# compound Cc1ccc(N=Nc2ccc(C)cc2NC(=O)Nc2cc(C)ccc2C)cc1 ; its growth inhibition = 27% (inactive)

# compound Cc1ccc(N=Nc2ccc(O)c(CN(C)C)c2)cc1 ; its growth inhibition = -24.4% (inactive)

* * *

assay explanation: NCI Yeast Anticancer Drug Screen. Data for the bub3 strain (AID 167)
experimental context: S. cerevisiae bub3 mutant strain, at 50.0 µM
This is part of a sample that, as a whole, favours compounds with a hit. Of some 79,000 tested, about 15% had one in any assay. Active and inactive are the calls of the source. Cut-off read from the data, not from the text of the source: active = growth inhibition above about 70%; inactive = the rest.
Outcomes you can answer with include only these: 1.0 for active, 0.0 for inactive

Lookup: For CCOC(=O)C(CS(=O)(=O)N(CC)CC)NC(=O)c1ccccc1 (configuration not stated) , what call appears in the results of this test?
Found: 0.0

Lookup: For CC(=O)c1cccc2c(C(C)=O)cccc12 , what call appears in the results of this test?
Found: 0.0

Lookup: For c1ccc(COc2ccc(CC3SCCCS3)cc2)cc1 , what call appears in the results of this test?
Found: 0.0

Lookup: For Nc1nc(SCC(=O)O)nc(N)c1N=Nc1ccc(S(=O)(=O)NC(=O)c2ccccc2)cc1 , what call appears in the results of this test?
Found: 0.0

Lookup: For OC1CCC(c2ccccc2)CC1 (configuration not stated) , what call appears in the results of this test?
Found: 0.0

Lookup: For COc1ccc(CSC(=S)Nc2cc(C)c(C)cc2Br)cc1 , what call appears in the results of this test?
Found: 1.0

Lookup: For C#CCn1cc(F)c(=O)n(CC#C)c1=O , what call appears in the results of this test?
Found: 0.0

Lookup: For FC(F)(F)c1cc(Cl)c2ccc3ccccc3c2n1 , what call appears in the results of this test?
Found: 0.0

Lookup: For C=C(C)c1nc(N)nc(-c2cccc(-c3nc(N)nc(C(=C)C)n3)c2)n1 , what call appears in the results of this test?
Found: 0.0

Lookup: For CN(CC(=O)O)C(=N)N , what call appears in the results of this test?
Found: 0.0

Lookup: For COc1ccc(Nc2cnc3cc(N)ccc3n2)cc1OC , what call appears in the results of this test?
Found: 0.0

Lookup: For Cn1c(=O)c2c(no[n+]2[O-])c2ccccc21 , what call appears in the results of this test?
Found: 0.0
